# System: RARa homodimer (NR concentration 270 nM)
# ASSAY METHOD TEXT: PBM binding z-score (relative to random genomic background probes); higher = stronger binding; sequences stand for … in GC…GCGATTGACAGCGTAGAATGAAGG
The label depends only on PBM binding z-score: Yes if it is at least 1, No if it is smaller.

Completed entries (count: 2):
> print(dat)
                             residues  answer.label
1  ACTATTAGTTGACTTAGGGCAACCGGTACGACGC            No
2  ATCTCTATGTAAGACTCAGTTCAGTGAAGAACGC            No

Is it the case that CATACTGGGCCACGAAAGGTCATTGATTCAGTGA has PBM binding z-score reaching or exceeding 1?
No

What about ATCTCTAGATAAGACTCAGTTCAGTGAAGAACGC ?
No

What about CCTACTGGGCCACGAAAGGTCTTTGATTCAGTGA ?
No

What about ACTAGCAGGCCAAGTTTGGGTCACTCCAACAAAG ?
No

What about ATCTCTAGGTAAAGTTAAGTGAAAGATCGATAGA ?
No

What about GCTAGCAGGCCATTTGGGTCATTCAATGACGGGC ?
No

What about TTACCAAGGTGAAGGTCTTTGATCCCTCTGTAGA ?
No

What about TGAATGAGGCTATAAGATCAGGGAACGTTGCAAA ?
No

What about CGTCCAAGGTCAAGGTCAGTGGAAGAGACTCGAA ?
No

What about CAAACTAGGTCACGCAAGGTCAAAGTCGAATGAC ?
Yes

What about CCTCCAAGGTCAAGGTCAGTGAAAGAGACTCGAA ?
Yes

What about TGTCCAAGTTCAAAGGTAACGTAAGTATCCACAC ?
No

What about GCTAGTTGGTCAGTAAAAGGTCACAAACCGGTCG ?
Yes

What about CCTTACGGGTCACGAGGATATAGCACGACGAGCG ?
Yes

====

# System: PPARg:RXRa IVT, anti-PPARg (NR concentration 270 nM, RXRa partner concentration 90 nM)
# ASSAY METHOD TEXT: PBM binding z-score (relative to random genomic background probes); higher = stronger binding; sequences stand for … in GC…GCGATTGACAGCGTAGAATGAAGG
ASSAY METRIC: PBM binding z-score
Lab note: jot down the number only; don't add units.

Sample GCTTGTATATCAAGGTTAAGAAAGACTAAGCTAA — what was its PBM binding z-score?
0.653

What about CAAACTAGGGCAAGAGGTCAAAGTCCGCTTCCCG ?
7.47

What about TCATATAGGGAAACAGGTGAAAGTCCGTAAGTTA ?
2.71

What about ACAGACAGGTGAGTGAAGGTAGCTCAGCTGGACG ?
0.62

====

# Tested on: PPARg:RXRa 90nM:30nM, anti-RXR (NR concentration 90 nM, RXRa partner concentration 30 nM)
# ASSAY METHOD TEXT: PBM binding z-score (relative to random genomic background probes); higher = stronger binding; sequences stand for … in GC…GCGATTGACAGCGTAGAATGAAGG
The label depends only on PBM binding z-score: true if it is at least 2, false if it is smaller.

Completed entries (count: 3):
> print(dat)
                             residues  answer.label
1  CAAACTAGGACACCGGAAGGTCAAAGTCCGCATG          true
2  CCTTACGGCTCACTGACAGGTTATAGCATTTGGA         false
3  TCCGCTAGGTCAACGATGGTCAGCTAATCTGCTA          true

Is it the case that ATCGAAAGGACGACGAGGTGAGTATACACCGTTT has PBM binding z-score reaching or exceeding 2?
false

What about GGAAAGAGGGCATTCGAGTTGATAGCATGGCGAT ?
false

What about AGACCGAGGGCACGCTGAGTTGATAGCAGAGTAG ?
false

What about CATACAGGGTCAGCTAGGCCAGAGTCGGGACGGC ?
false

Data credit: the supplement of paper PMC6555819
